Tested on: Plasmodium berghei
Experiment: Screen against P. berghei liver stage (PbLuc), transformed with Luciferase, at 2uM
Format: functional, HepG2
Conditions: tested at 2 uM
The campaign covered roughly 68,000 compounds. About 2,700 (4%) showed an effect of 50% or more. What follows is part of a selection rich in strong results, with near analogues and random picks from the rest.
endpoint-label: INHIBITION (%)
One number for each entry, in %.

Some solved entries appear below for comparison.
>>> value_reported("CN1CCC(O)(CNC(=O)c2cc(COc3cccc(F)c3)[nH]n2)CC1")
-13.79
>>> value_reported("O=C1N(Cc2ccc(F)c(F)c2)CCCC1(O)CNCc1cccnc1 (stereo not drawn)")
-0.06

Query molecule follows.
Problem: Given COc1ccc(OC)c(CN2CCN(Cc3cscn3)CC2)c1 , state its recorded INHIBITION.
Solution: 1.3

---

Tested on: Plasmodium berghei
Experiment: Screen against P. berghei liver stage (PbLuc), transformed with Luciferase, at 2uM
Type: functional, HepG2
Details: tested at 2 uM
The campaign covered roughly 68,000 compounds. About 2,700 (4%) showed an effect of 50% or more. The list comes from a sample in which strong results are over-represented; it also holds close analogues and randomly drawn compounds.
Please use yes (1) whenever INHIBITION is not below 30%, and no (0) whenever it is.

Solved cases below.
>>> group_label("CSCC(C)(O)CNc1cccc(F)c1C(C)=O (configuration not stated)")
"no (0)"
>>> group_label("Cc1ccc(C)c(OCc2cc(C(=O)N(C)Cc3cnn(C)c3)no2)c1")
"no (0)"

Attention now turns to another entry.
Problem: Would you say Cc1ccc(O)c(CNCC2CCCN2c2cccnn2)n1 (configuration not stated) shows INHIBITION at minimum 30%?
Solution: no (0)

---

Kindly supply the reported INHIBITION values for the records listed here.
Test system: Plasmodium berghei
Assay: Screen against P. berghei liver stage (PbLuc), transformed with Luciferase, at 2uM
Assay type: functional, HepG2
Conditions: tested at 2 uM
About 2,700 (4%) of roughly 68,000 compounds showed an effect of 50% or more. Only a selection was taken, and strong results are over-represented in it overall.
Numbers only, in %.

Some solved entries appear below for comparison.
>>> value_reported("CC(C)N1CCC(CC(=O)NCCc2cc(O)ncn2)CC1")
60.59
>>> value_reported("Cc1cc(C(=O)N2CCC3(CC2)CC(c2cccnc2)C(=O)N3)no1 (stereo not drawn)")
12.68

Quick batch: INHIBITION for everything below.
1. O=C1NC2(CCN(C(=O)N3CCOCC3)CC2)CC1c1cccnc1 (stereo not drawn)
2. Cn1c(Cn2cccn2)nnc1C1CCN(Cc2ccccc2Cl)CC1
3. CC(C)N1CCC(CC(=O)NCc2cc(O)ncn2)CC1

Solution:
1: 78.29; 2: 15.75; 3: 12.17

Quick batch: INHIBITION for everything below.
1. O=C1CCC2(CCCN(c3ncc(Cl)cc3F)C2)CN1CC1CC1 (stereo not drawn)
2. Cc1ccccc1C(=O)N1CCC2(CC1)CC(c1cnn(C)c1)CO2 (stereo not drawn)
3. O=C1NCC(C(=O)Nc2ncc(Cc3ccc(F)cc3)s2)N1 (stereo not drawn)

Solution:
[-31.23, 42.27, 21.39]

---

Test system: Plasmodium berghei
Experiment: Screen against P. berghei liver stage (PbLuc), transformed with Luciferase, at 2uM
Assay type: functional, HepG2
Details: tested at 2 uM
The whole screen tested about 68,000 compounds, of which about 2,700 (4%) showed an effect of 50% or more. Only a selection was taken, and strong results are over-represented in it overall.
Kindly supply the reported INHIBITION values for the records listed here.
Give bare numbers, in %.

Some solved entries appear below for comparison.
>>> value_reported("Cc1ccc(NC(=O)c2ccc(=O)n(CC(=O)Nc3nccs3)n2)cc1")
-20.78
>>> value_reported("CC(C)NC(=O)CCNC(=O)CCc1cc(Cl)cs1")
-31.42
>>> value_reported("CC(C)(C)n1ncc2c1CCCC2NCc1ccc2c(c1)CCO2 (centres undefined)")
64.67

Problem: Given CCN(CC1CCOC1)C(=O)NCc1nnc2n1CCCCC2 (centres undefined) , state its recorded INHIBITION.
Solution: 7.24

---

Kindly supply the reported INHIBITION values for the records listed here.
System: Plasmodium berghei
Assay: Screen against P. berghei liver stage (PbLuc), transformed with Luciferase, at 2uM
Type: functional, HepG2
Settings: tested at 2 uM
In all, about 68,000 compounds went through this assay and about 2,700 (4%) showed an effect of 50% or more. What follows is part of a selection rich in strong results, with near analogues and random picks from the rest.
Numbers only, in %.

>>> value_reported("CCCC(NC(=O)NCc1cccc(N(C)C)n1)c1ccccn1 (centres undefined)")
-40.08
>>> value_reported("Cc1cc(N2CCC(N(C)C(=O)c3sccc3C)CC2)nc(C)n1")
-82.24
>>> value_reported("Fc1ccc(CN2CCCC(c3cc4ncccc4[nH]3)C2)cc1 (centres undefined)")
-6.41
>>> value_reported("Cc1cnc2c(c1NCc1ccc(F)cc1)c(=O)n(C)c(=O)n2C")
-5.61
>>> value_reported("CC(c1cccc(F)c1)N1CCN(Cc2nccn2C)CC1 (centres undefined)")
0.46
>>> value_reported("CN(CCN1CCCCCC1)C(=O)c1c(O)cccc1O")
-46.57
>>> value_reported("CCOc1ccc(CN2CCCC(c3cc4ncccc4[nH]3)C2)cc1 (centres undefined)")
-12.12
>>> value_reported("Cc1cccc(CN2C[C@@H]3OCCN(c4ccnc(N(C)C)n4)[C@@H]3C2)c1")
53.55
>>> value_reported("CC(C)NC(=O)[C@H]1C[C@@H]2[C@@H](C1)OCCN2Cc1cccs1")
29.43
>>> value_reported("Cc1ncnc2c1CCN(C(=O)c1ccncc1F)CC2")
6.81

Quick batch: INHIBITION for everything below.
1. Cc1nc2c(c(NC(C)C)n1)CCN(C(=O)CCO)CC2
2. CC(C)c1ncc2c(n1)CN(Cc1nc(Cc3ccccc3)no1)CC2
3. CNC(=O)C1CCN(c2ncnc3c2CCN(C(=O)C2CC2)C3)C1 (centres undefined)
4. Cc1cccc(CN2C[C@@H]3CN(C(=O)c4ccsc4)C[C@@H]3C2=O)n1
5. CC(c1ccc(F)cc1)N1CCN(Cc2nccn2C)CC1 (centres undefined)

Solution:
[-13.61, 6.12, 16.53, -23.78, 5.09]

Quick batch: INHIBITION for everything below.
1. COC(=O)COc1cc(NCc2c(C)noc2C)c(Cl)cc1C
2. CN(C)c1nccc(N2CCO[C@H]3CN(Cc4ccco4)C[C@H]32)n1
3. O=C(CCc1ccc(C(F)(F)F)cc1)N1CCCS1(=O)=O
4. CC(C)C[C@@H](CO)n1cc(-c2cncnc2)nn1
5. CN(Cc1ccccc1CN1CCCC1)C(=O)c1c(O)cccc1O
6. COCCN1CCC2(CC1)CC(NC(=O)CN(C)C)c1ccccc1O2 (centres undefined)
7. COc1ncc(CN2CCC3(CCNC(=O)CC3)CC2)cn1
8. CCCNc1ncc(CN2CCN(C)C(=O)C2C)cn1 (centres undefined)

Solution:
1. -55.9
2. 28.14
3. -24.72
4. 26.99
5. 54.29
6. 48.52
7. 0.85
8. -29.46

Quick batch: INHIBITION for everything below.
1. O=C(NCCN1CCOCC1)C1=NOC2(CCN(Cc3nccs3)C2)C1 (centres undefined)
2. COC(=O)c1ccc(S(=O)(=O)N(C)CC(N)=O)c(Cl)c1
3. Cc1nc2c(c(NC(C)C)n1)CCN(C1CCOCC1)CC2
4. Cn1ccnc1CN1CCN(CC(O)c2ccc(F)cc2)CC1 (centres undefined)
5. COCCN(Cc1ccccn1)C(=O)Nc1cccnc1N1CCCC1

Solution:
[50.9, -3.54, 53.44, -10.66, -40.03]

Problem: Given C/C(=C\c1ccccc1)CN1CCCC(c2nnc3n2CCNCC3)C1 (centres undefined) , state its recorded INHIBITION.
Solution: 36.51

---

System: Plasmodium berghei
Experiment: Screen against P. berghei liver stage (PbLuc), transformed with Luciferase, at 2uM
Assay type: functional, HepG2
Conditions: tested at 2 uM
The whole screen tested about 68,000 compounds, of which about 2,700 (4%) showed an effect of 50% or more. This is one part of a sample in which strong results are shown more often than they occur.
Please use T whenever INHIBITION is not below 30%, and F whenever it is.

Solved cases below.
>>> group_label("CCC(O)CN1CCN(C(=O)c2sccc2C2CC2)CC1 (configuration not stated)")
"T"
>>> group_label("CCN(Cc1cccc(C(=O)Nc2c(C)cnn2C)c1)[C@H]1COC[C@@H]1O")
"F"
>>> group_label("Cc1nnc2ccc(OCCNS(C)(=O)=O)nn12")
"F"
>>> group_label("CCOc1cc(NC(=O)N(C)Cc2ncnn2C)ccc1C")
"T"

Attention now turns to another entry.
Problem: Would you say O=C(CC1CC1)N[C@@H]1CN(C(=O)c2cccs2)C[C@@H]2CCCO[C@@H]21 shows INHIBITION at minimum 30%?
Solution: T
